These entries and their values trace back to patent US10160748B2.

Biological target: TNFα trimer (Homo sapiens, UniProt P01375)
Sequence (P01375 77-233 limits assumed): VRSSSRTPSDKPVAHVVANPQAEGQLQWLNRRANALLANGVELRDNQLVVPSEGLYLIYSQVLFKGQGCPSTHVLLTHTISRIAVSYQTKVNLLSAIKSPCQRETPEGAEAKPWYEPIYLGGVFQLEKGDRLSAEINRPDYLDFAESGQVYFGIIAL
Assay: TNFα FP Competitive Binding Assay
Details: FP binding assay; 20 nM TNFα trimer, 1 nM OregonGreen488 probe; read-out: TNF IC50
Measured IC50 values are reported for all entries that follow.

Past entries and their recorded results:
Molecule	Assay endpoint	Endpoint result
Cn1c(=O)c2ccc(-c3cnc(N4CCOCC4)nc3)cc2n1Cc1ncccc1Cl [Example 1.14]	IC50	1000 to 10000 nM
CC(=O)N1CCN(c2ncc(-c3ccc4c(=O)n(C)n(Cc5cccc6c5SCC(=O)NC6)c4c3)cn2)C[C@H]1C [Example 52]	IC50	1000 to 10000 nM
Cn1c(=O)c2ccc(-c3cnc(N[C@@H]4CCOC4)nc3)cc2n1Cc1ccccc1OC(F)F [Example 2.24]	IC50	1000 to 10000 nM
C[C@@H]1CN(c2ncc(-c3ccc4c(=O)n(C)n(Cc5cc(CC#N)ccc5OC(F)F)c4c3)cn2)CCN1C(=O)CO [Example 24.1]	IC50	< 1000 nM
Cn1c(=O)c2ccc(-c3cnc(N4CCNC(=O)C4)nc3)cc2n1Cc1c(Cl)cccc1Cl [Example 8.2]	IC50	1000 to 10000 nM
Cc1ccc(OC(F)F)c(Cn2c3cc(-c4ccnc(OC5CCOCC5)c4)ccc3c(=O)n2C)c1 [Example 22.13]	IC50	< 1000 nM
C[C@@H]1C[C@@H](O)CCN1c1ncc(-c2ccc3c(=O)n(C)n(Cc4ccccc4OC(F)F)c3c2)cn1 [Example 19]	IC50	< 1000 nM
Cn1c(=O)c2ccc(-c3cnc(N4CCN5C(=O)NC[C@@H]5C4)nc3)cc2n1Cc1nc(CO)ccc1OC(F)F [Example 84]	IC50	< 1000 nM

Using the record for Cn1c(=O)c2ccc(-c3cnc(N4CCOCC4)nc3)cc2n1CCc1ccccc1 [Example 1.4] , report its IC50.
> 10000 nM

Using the record for Cn1c(=O)c2ccc(-c3cnc(C4(O)CCN(C(=O)CN)CC4)nc3)cc2n1Cc1ccccc1OC(F)F [Example 14.3] , report its IC50.
1000 to 10000 nM

Using the record for Cc1ccc(OC(F)F)c(Cn2c3cc(-c4cnc(N5CCN(C(=O)COC(=O)[C@@H](N)C(C)C)[C@H](C)C5)nc4)ccc3c(=O)n2C)c1 [Example 14.14] , report its IC50.
< 1000 nM

Using the record for Cc1ccc(OC(F)F)c(Cn2c3cc(-c4cnc(C(C)(C)N)nc4)ccc3c(=O)n2C)c1 [Example 120] , report its IC50.
< 1000 nM

Using the record for Cn1c(=O)c2ccc(-c3cc(N4CCOCC4)ncc3Cl)cc2n1Cc1cccc(F)c1 [Example 3.1] , report its IC50.
> 10000 nM

Using the record for CC(=O)N1CCN(c2ncc(-c3ccc4c(=O)n(C)n(Cc5cc(C)ccc5OC(F)F)c4c3)cn2)CC1 [Example 22.6] , report its IC50.
< 1000 nM

Using the record for CN1C[C@H]2CN(c3ncc(-c4ccc5c(=O)n(C)n(Cc6ccccc6OC(F)F)c5c4)cn3)CCN2C1=O [Example 34] , report its IC50.
< 1000 nM

Using the record for Cc1ccc(OC(F)F)c(Cn2c3cc(-c4cnc(N5CCN(C(=O)CN)[C@@H](C)C5)nc4)ccc3c(=O)n2C)c1 [Example 14.7] , report its IC50.
< 1000 nM
